Tested on: CP194
experiment_summary: qHTS profiling for inhibitors of Plasmodium falciparum proliferation (AID 504749); further: nearly all actives have a fitted effect of over 60% in size
measurement_context: P. falciparum in erythrocytes, SYBR Green DNA, 72 h; series mostly up to 28.7 µM
Results filed as inconclusive are left out. Active and inactive are the calls of the source. The call rests on the fitted dose curve; in most records, active means well fitted inhibition curve with a large enough effect; inconclusive means small, poorly fitted or top-dose-only effect; inactive means flat fitted curve, though single readings scatter.
Outcome (select one): active, inactive

1. CO/N=C(\C(=O)N[C@@H]1C(=O)N2C(C(=O)[O-])=C(C[N+]3(C)CCCC3)CS[C@@H]12)c1csc(N)n1 : inactive
2. C=C1CC[C@H](O)C/C1=C/C=C1\CCC[C@]2(C)[C@@H]([C@H](C)CCCC(C)C)CC[C@@H]12 : inactive
3. O=C(O)[C@@H](S)[C@H](S)C(=O)O : active
4. C[C@]12CC[C@H]3c4ccc(O)cc4CC[C@@H]3[C@H]1CC[C@@H]2OP(=O)(O)O : inactive
5. N[C@@H](Cc1ccccc1)C(=O)O : inactive

Identify the outcome logged in this assay for the compound shown: `Cc1c(C(=O)O)c(O)cc2c1C(=O)c1c(O)c([C@H]3O[C@H](CO)[C@@H](O)[C@H](O)[C@H]3O)c(O)c(O)c1C2=O`
inactive

Identify the outcome logged in this assay for the compound shown: `COc1cc2nc(N(C)CCCNC(=O)[C@@H]3CCCO3)nc(N)c2cc1OC`
inactive

Identify the outcome logged in this assay for the compound shown: `OC[C@H](S)CS`
inactive

Identify the outcome logged in this assay for the compound shown: `CC(C)(C)NC[C@@H](O)c1ccc(O)c(CO)n1`
inactive

Identify the outcome logged in this assay for the compound shown: `COc1cccc2c1C(=O)c1c(O)c3c(c(O)c1C2=O)C[C@](O)(C(=O)CO)C[C@@H]3O[C@H]1C[C@H](N)[C@@H](O)[C@H](C)O1`
inactive

Identify the outcome logged in this assay for the compound shown: `O=C(O)[C@@H](O)[C@@H](O)[C@H](O)[C@H](O)CO`
inactive

Just for reference, PubChem BioAssay (NCATS) is where these values come from.
